Listing: pIC50 of selected compounds
- MEASURED ON: TYK2 (Homo sapiens, UniProt P29597)
- Sequence (P29597 whole entry, species assumed): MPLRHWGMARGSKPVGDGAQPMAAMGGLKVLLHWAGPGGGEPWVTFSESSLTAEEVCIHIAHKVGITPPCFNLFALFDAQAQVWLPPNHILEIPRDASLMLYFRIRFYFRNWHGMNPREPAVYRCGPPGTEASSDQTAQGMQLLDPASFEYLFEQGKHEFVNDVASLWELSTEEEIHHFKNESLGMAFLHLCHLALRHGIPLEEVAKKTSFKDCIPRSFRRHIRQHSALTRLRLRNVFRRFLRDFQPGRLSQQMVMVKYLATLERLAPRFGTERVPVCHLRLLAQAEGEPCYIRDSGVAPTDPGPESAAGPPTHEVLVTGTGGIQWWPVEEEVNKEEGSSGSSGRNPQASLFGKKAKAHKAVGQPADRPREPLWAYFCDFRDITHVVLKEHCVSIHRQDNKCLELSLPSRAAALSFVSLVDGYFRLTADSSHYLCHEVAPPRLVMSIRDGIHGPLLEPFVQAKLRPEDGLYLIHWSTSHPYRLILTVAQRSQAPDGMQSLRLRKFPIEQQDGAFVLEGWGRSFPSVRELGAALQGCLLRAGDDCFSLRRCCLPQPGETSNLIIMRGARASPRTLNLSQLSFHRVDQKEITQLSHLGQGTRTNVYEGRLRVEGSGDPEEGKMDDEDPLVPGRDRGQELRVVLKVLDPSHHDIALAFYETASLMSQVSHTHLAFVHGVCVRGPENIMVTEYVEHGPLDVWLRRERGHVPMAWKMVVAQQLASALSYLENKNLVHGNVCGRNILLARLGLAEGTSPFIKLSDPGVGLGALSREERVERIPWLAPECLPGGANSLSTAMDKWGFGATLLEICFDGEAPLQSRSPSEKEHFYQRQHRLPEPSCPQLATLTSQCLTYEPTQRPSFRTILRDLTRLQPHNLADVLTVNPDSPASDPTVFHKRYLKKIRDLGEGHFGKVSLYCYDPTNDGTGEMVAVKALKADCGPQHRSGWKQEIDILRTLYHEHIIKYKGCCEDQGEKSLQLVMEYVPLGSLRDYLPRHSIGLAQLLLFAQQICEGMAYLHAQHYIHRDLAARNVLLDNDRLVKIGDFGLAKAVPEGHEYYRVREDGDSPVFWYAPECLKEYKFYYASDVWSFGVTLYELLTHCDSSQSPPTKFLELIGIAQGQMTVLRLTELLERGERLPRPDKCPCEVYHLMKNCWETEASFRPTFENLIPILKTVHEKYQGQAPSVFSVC
pIC50: −log10 of the molar value.

>>> endpoint_result("CN(c1ncnc2[nH]ccc12)C1CC2(C1)CN(C(=O)c1ccc(Cl)cc1)C2")
"≤ 5.00"
>>> endpoint_result("COc1ccc(C(=O)N2CC3(CC(N(C)c4ncnc5[nH]ccc45)C3)C2)cc1")
"≤ 5.00"
>>> endpoint_result("CN(c1ncnc2[nH]ccc12)C1CC2(C1)CN(C(=O)c1ccc(C#N)c(F)c1F)C2")
"5.00 to 6.00"
>>> endpoint_result("CN(c1ncnc2[nH]ccc12)C1CC2(C1)CN(C(=O)c1ccc(C(F)(F)F)cc1)C2")
"≤ 5.00"
>>> endpoint_result("C#Cc1ccc(C(=O)N2CC3(CC(N(C)c4ncnc5[nH]ccc45)C3)C2)cc1")
"5.00 to 6.00"
>>> endpoint_result("Cc1ccsc1C(=O)N1CC2(CC(N(C)c3ncnc4[nH]ccc34)C2)C1")
"≤ 5.00"
>>> endpoint_result("CN(c1ncnc2[nH]ccc12)C1CC2(C1)CN(C(=O)c1ccc(Cl)cn1)C2")
"≤ 5.00"
>>> endpoint_result("CN(c1ncnc2[nH]ccc12)C1CC2(C1)CN(C(=O)c1cc3ccccc3[nH]1)C2")
"5.00 to 6.00"

**Query** Note down pIC50 recorded for CN(c1ncnc2[nH]ccc12)C1CC2(C1)CN(C(=O)c1ccc(F)cc1)C2
**Result** ≤ 5.00

**Query** Note down pIC50 recorded for CN(c1ncnc2[nH]ccc12)C1CC2(C1)CN(C(=O)c1ccc(C#N)c(F)c1)C2
**Result** ≤ 5.00

###

Record set of IC50 for target or system JAK1 (Homo sapiens, UniProt P23458).

>>> endpoint_result("CN(c1ncnc2[nH]ccc12)C1CC2(C1)CN(C(=O)c1cccc(C#N)c1)C2")
"10 to 100 nM"
>>> endpoint_result("CCS(=O)(=O)N1CC2(CC(N(C)c3ncnc4[nH]ccc34)C2)C1")
"100 to 1000 nM"

**Query** Note down IC50 recorded for [2H]C([2H])([2H])N(c1ncnc2[nH]ccc12)C1CC2(C1)CN(C(=O)c1ccc(C#CC)c(F)c1)C2
**Result** ≤ 10 nM
